# Species: Bos taurus
# TEST_SUMMARY: Relative binding affinity(RBA) as ratio of progesterone and compound required to displace [3H]-org 2058 binding to Progesterone receptor by 50%
PROPERTY_LABEL: RBA

a = CCC1Cc2cc(OC(C)=O)c(OC(C)=O)cc2-c2cc3cc(OC(C)=O)ccc3n21 (stereo not given)
b = CCC1Cc2cc(OC(C)=O)ccc2-c2cc3cc(OC(C)=O)ccc3n21 (stereo not given)
Hey, which is lower on measured RBA, a or b ? Please identify the chosen entry by its label.
a

###

# TARGET: Estrogen receptor (Mus musculus) (UniProt O08537+P19785)
# Sequence (O08537 whole entry, looked up): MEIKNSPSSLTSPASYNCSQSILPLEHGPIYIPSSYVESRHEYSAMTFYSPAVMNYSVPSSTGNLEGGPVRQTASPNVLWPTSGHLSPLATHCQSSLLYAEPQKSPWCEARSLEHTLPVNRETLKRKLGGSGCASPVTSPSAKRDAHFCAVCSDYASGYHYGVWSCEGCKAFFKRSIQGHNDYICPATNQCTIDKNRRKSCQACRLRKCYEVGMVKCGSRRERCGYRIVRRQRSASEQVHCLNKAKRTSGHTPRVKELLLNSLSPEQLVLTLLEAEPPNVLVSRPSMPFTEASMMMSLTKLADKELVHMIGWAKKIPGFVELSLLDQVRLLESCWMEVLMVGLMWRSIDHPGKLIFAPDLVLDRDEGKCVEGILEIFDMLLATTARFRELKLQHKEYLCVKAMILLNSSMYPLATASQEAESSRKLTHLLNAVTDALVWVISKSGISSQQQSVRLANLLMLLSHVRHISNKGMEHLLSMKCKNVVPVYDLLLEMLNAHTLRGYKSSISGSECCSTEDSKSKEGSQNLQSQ
# Sequence (P19785 whole entry, looked up): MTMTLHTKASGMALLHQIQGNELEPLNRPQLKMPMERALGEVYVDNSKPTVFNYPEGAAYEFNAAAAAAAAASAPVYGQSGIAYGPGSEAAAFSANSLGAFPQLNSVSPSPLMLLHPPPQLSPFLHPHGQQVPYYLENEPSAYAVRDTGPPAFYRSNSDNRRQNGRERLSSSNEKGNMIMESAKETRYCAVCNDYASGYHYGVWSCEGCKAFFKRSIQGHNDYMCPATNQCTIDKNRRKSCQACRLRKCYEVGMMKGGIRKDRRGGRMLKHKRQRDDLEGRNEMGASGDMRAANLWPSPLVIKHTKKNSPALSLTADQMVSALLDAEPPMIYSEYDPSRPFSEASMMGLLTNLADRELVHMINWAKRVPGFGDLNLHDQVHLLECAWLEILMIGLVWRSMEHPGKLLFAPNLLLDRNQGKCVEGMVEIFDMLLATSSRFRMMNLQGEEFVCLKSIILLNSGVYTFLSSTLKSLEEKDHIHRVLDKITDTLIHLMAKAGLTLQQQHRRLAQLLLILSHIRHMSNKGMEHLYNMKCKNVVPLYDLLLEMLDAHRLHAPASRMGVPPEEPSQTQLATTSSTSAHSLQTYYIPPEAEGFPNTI
# TEST_SUMMARY: Estrogenic activity in uterotrophic assay in immature mice at 10.0 ug subcutaneous dose
# Type: functional
PROPERTY_LABEL: Effect

CC(=O)Oc1ccc2c(c1)CC(C)n1c-2cc2cc(OC(C)=O)ccc21 (centres undefined) : 56
CCC1Cn2c(cc3cc(OC(C)=O)ccc32)-c2ccc(OC(C)=O)cc21 (centres undefined) : 44.1
CCC1Cc2cc(OC(C)=O)ccc2-c2cc3ccc(OC(C)=O)cc3n21 (centres undefined) : 44.5
CCC1Cc2cc(OC(C)=O)ccc2-c2cc3cc(OC(C)=O)ccc3n21 (centres undefined) : 51
